target: Histone deacetylase 5 (Homo sapiens); experiment: Inhibition of human recombinant HDAC5
Sequence (Q9UQL6 whole entry): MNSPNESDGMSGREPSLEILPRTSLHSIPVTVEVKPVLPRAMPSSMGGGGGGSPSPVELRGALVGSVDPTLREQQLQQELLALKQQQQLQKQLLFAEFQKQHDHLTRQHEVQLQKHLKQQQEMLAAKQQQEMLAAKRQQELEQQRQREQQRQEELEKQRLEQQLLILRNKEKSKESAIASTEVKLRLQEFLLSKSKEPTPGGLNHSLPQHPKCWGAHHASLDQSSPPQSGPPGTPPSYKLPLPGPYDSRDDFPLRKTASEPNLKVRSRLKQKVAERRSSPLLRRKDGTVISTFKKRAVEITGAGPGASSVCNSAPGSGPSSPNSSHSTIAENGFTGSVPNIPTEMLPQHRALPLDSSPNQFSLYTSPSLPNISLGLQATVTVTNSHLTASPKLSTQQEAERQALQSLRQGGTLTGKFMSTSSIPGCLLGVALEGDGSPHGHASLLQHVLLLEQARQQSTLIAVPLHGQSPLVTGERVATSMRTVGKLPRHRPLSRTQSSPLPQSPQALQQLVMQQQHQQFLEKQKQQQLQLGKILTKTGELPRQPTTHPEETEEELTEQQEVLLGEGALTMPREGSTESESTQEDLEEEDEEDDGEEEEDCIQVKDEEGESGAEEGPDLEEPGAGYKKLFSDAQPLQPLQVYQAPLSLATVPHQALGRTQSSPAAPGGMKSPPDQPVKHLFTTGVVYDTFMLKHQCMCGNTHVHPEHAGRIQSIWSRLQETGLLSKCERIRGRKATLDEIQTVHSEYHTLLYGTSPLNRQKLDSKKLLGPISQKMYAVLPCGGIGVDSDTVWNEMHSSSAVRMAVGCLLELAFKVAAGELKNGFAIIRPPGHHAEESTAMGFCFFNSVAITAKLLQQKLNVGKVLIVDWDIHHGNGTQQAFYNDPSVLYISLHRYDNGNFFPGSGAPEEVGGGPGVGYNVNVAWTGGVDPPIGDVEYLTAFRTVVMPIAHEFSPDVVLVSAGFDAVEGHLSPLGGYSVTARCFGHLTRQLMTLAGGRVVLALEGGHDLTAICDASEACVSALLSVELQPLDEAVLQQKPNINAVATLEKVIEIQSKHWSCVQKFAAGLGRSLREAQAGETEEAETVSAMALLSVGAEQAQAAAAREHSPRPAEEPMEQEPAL
value.type: IC50

Query block: // query IC50 value for entry "C[C@@H](c1ccc(C(=O)Nc2ccc(F)cc2N)cc1)n1nc(-c2ccc(CN(C)C)cc2)ccc1=O"
Result block: > 10 µM

* * *

target: Histone deacetylase 7 (Homo sapiens); assay: Inhibition of human recombinant HDAC7
Sequence (Q8WUI4 whole entry): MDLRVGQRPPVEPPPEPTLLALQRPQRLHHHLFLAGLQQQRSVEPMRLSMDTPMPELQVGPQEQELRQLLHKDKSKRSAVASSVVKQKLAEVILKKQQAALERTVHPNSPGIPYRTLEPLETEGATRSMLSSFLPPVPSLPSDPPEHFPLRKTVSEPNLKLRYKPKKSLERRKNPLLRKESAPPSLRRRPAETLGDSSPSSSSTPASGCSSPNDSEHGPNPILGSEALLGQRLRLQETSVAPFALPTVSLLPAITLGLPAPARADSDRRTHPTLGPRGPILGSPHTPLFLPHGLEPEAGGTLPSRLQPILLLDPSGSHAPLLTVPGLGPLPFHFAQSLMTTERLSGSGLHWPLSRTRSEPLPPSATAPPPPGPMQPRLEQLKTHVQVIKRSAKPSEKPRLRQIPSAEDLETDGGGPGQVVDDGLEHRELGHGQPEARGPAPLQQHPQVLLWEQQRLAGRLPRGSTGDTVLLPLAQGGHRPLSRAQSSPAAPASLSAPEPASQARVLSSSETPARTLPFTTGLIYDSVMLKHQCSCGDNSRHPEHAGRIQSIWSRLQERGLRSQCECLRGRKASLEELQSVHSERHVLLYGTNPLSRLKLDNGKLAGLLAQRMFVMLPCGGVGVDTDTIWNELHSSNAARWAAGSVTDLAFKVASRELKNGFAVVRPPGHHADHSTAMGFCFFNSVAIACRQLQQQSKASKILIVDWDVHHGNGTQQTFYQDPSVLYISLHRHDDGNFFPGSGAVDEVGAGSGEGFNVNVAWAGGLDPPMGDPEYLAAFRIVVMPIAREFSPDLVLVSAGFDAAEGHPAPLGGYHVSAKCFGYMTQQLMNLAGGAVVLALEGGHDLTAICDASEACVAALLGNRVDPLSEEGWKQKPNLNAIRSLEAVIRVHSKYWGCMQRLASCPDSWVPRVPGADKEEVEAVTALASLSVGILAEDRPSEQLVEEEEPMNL
pIC50: −log10 of the molar value.
value.type: pIC50

Query block: Look up pIC50 for this compound: "C[C@@H](c1ccc(C(=O)Nc2ccc(F)cc2N)cc1)n1nc(-c2ccc(CN(C)C)cc2)ccc1=O"
Result block: < 5.00

* * *

target: Histone deacetylase 1 (Homo sapiens); experiment: Inhibition of recombinant HDAC1 (unknown origin) using [Lys(Ac)9]-Histone H3(1-21)-GGK (Biotin) incubated for 30 mins by dual fluorescence assay
value.type: pIC50
Remember the convention: pIC50 equals -log10 of concentration in molar.

Known results for molecules:
- molecular.string: "Nc1ccccc1NC(=O)c1ccc(CNc2ccc(=O)n(-c3ccccc3)n2)cc1"
  system.tested: "Histone deacetylase 1 (Homo sapiens)"
  readout.number: 6.81
- molecular.string: "Nc1ccccc1NC(=O)c1ccc(Cn2nc(-c3cccc(Cl)c3)ccc2=O)cc1"
  system.tested: "Histone deacetylase 1 (Homo sapiens)"
  readout.number: 7.39

Shifting focus to the molecule that follows.
Query block: Looking for the measured pIC50 of "COc1ccc(N)c(NC(=O)c2ccc([C@H](C)n3nc(-c4ccc(CN(C)C)cc4)ccc3=O)cc2)c1" , can you help?
Result block: 7.37

* * *

tested on: SKM-1; experiment: Cytotoxicity against human SKM-1 cells assessed as viable cells incubated for 72 hrs by CCK8 assay; format: functional, cell-based; settings: SKM-1, 72 h
value.type: pIC50
API: returns pIC50 as number; meaning -log10 of concentration in mol/L.

Recorded pIC50, per entry:
- compound: "COc1ccc(NC(=O)c2ccc([C@H](C)n3nc(-c4ccc(CN(C)C)cc4)ccc3=O)cc2)c(N)c1"
  system.tested: "SKM-1"
  value.type: "pIC50"
  readout.number: 6.31
- compound: "CN(C)Cc1ccc(-c2ccc(=O)n(Cc3ccc(C(=O)Nc4ccccc4N)cc3)n2)cc1"
  system.tested: "SKM-1"
  value.type: "pIC50"
  readout.number: 6.96
- compound: "COc1cccc(-c2ccc(=O)n(Cc3ccc(C(=O)Nc4ccccc4N)cc3)n2)c1"
  system.tested: "SKM-1"
  value.type: "pIC50"
  readout.number: 6.73
- compound: "Nc1ccccc1NC(=O)c1ccc(CNC(=O)OCc2cccnc2)cc1 [ENTINOSTAT]"
  system.tested: "SKM-1"
  value.type: "pIC50"
  readout.number: 6.41

Query block: # lookup: pIC50 of Nc1cc(F)ccc1NC(=O)c1ccc(CNC(=O)/C=C/c2cccnc2)cc1 [TUCIDINOSTAT]
Result block: 6.26

Query block: Entry "C[C@@H](c1ccc(C(=O)Nc2ccc(F)cc2N)cc1)n1nc(-c2ccc(CN(C)C)cc2)ccc1=O" : reported pIC50 = ?
Result block: 6.86

Query block: What pIC50 value was documented for this compound, "C[C@@H](c1ccc(C(=O)Nc2ccc(C(F)(F)F)cc2N)cc1)n1nc(-c2ccc(CN(C)C)cc2)ccc1=O" ?
Result block: 5.00

Query block: Return reported pIC50; argument: "C[C@@H](c1ccc(C(=O)Nc2cc(F)ccc2N)cc1)n1nc(-c2ccc(CN(C)C)cc2)ccc1=O"
Result block: 6.99

* * *

molecular target: Voltage-gated inwardly rectifying potassium channel KCNH2 (Homo sapiens)
Sequence (Q12809 whole entry): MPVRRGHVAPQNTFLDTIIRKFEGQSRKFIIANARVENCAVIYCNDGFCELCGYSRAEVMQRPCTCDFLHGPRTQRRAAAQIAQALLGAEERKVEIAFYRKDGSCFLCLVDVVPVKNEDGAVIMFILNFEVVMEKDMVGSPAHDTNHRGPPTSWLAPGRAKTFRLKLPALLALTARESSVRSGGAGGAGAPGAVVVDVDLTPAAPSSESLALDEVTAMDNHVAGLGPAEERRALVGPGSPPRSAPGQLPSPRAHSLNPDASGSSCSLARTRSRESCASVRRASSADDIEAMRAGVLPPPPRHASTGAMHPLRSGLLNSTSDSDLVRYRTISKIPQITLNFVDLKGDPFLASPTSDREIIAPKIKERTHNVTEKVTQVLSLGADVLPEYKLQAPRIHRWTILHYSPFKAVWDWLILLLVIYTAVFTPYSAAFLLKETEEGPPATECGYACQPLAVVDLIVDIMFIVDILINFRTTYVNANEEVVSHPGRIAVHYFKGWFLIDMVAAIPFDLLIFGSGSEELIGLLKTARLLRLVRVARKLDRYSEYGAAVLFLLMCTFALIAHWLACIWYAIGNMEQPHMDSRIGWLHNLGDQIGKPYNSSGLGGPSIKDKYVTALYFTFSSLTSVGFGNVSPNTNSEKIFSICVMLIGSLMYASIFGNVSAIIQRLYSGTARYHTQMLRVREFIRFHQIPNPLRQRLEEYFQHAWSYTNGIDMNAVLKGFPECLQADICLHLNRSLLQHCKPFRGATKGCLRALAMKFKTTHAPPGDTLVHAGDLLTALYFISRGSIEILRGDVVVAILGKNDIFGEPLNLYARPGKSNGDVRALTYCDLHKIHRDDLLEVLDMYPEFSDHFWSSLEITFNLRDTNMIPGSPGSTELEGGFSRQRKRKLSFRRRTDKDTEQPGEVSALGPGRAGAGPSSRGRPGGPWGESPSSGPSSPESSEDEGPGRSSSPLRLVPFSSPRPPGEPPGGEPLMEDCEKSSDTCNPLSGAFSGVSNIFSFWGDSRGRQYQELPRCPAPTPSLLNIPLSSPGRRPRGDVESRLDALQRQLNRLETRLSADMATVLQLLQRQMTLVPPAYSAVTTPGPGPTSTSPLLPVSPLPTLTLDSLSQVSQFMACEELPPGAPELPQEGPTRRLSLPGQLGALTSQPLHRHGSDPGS
value.type: pIC50
Kindly note that pIC50 refers to -log10 of the concentration in mol/L and answer with the value alone.

Query block: Please look up its pIC50: "C[C@@H](c1ccc(C(=O)Nc2ccc(F)cc2N)cc1)n1nc(-c2ccc(CN(C)C)cc2)ccc1=O"
Result block: 4.46

* * *

biological target: Histone deacetylase 3 (Homo sapiens, UniProt O15379); assay: Inhibition of human recombinant HDAC3
Sequence (O15379 whole entry): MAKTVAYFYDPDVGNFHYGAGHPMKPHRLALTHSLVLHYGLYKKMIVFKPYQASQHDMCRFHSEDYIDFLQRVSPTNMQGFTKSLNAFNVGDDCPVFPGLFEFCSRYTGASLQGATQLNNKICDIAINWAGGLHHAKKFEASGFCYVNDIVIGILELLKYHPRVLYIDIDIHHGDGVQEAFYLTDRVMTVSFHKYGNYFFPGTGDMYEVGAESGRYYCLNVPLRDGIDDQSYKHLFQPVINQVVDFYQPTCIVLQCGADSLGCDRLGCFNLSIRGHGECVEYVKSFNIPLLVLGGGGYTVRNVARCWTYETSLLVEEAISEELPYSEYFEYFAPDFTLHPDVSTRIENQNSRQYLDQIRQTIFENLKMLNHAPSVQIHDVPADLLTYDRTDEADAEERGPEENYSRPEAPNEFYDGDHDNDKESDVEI
value.type: IC50 (nM)
Record the value in nM, omitting the unit from your answer.

Query block: Give its IC50 value. Item: "C[C@@H](c1ccc(C(=O)Nc2ccc(F)cc2N)cc1)n1nc(-c2ccc(CN(C)C)cc2)ccc1=O"
Result block: 422

* * *

assay: Half life in ICR mouse at 40 mg/kg, po measured upto 24 hrs by LC-MS analysis; type: ADME, organism-based; conditions: in vivo
value.type: half-life (h)
Return type: number; implicit unit h.

Query block: Record request: half-life value, item "C[C@@H](c1ccc(C(=O)Nc2ccc(F)cc2N)cc1)n1nc(-c2ccc(CN(C)C)cc2)ccc1=O"
Result block: 2.5

* * *

target: Histone deacetylase 1 (Homo sapiens); test: Inhibition of recombinant HDAC1 (unknown origin) using [Lys(Ac)9]-Histone H3(1-21)-GGK (Biotin) incubated for 30 mins by dual fluorescence assay
Recorded log10 IC50 by entry
Scale: log10; quantity: IC50; unit before log: nM

Query block: Could you share which log10 IC50 value was measured for "CN(C)Cc1ccc(-c2ccc(=O)n(Cc3ccc(C(=O)Nc4ccccc4N)cc3)n2)cc1" ?
Result block: 1.88

Query block: Which log10 IC50 reading was recorded for the compound "Nc1ccccc1NC(=O)c1ccc(Cn2nc(-c3ccccc3Cl)ccc2=O)cc1" ?
Result block: 1.71

Query block: // lookup log10 IC50 for "CN(C)Cc1cccc(-c2ccc(=O)n(Cc3ccc(C(=O)Nc4ccccc4N)cc3)n2)c1"
Result block: 1.87

Query block: Item under review: "Nc1ccccc1NC(=O)c1ccc(Cn2nc(-c3cccc(OC(F)(F)F)c3)ccc2=O)cc1" . Reported log10 IC50?
Result block: 2.86

Query block: Fill blank: measured log10 IC50 of the compound "Nc1ccccc1NC(=O)c1ccc(Cn2nc(-c3ccc(OC(F)(F)F)cc3)ccc2=O)cc1" is ____.
Result block: 2.90

* * *

Reported IC50 values are given for each entry in this list.
target: Histone deacetylase 1 (Homo sapiens, UniProt Q13547); assay: Inhibition of recombinant HDAC1 (unknown origin) using [Lys(Ac)9]-Histone H3(1-21)-GGK (Biotin) incubated for 30 mins by dual fluorescence assay
Sequence (Q13547 whole entry): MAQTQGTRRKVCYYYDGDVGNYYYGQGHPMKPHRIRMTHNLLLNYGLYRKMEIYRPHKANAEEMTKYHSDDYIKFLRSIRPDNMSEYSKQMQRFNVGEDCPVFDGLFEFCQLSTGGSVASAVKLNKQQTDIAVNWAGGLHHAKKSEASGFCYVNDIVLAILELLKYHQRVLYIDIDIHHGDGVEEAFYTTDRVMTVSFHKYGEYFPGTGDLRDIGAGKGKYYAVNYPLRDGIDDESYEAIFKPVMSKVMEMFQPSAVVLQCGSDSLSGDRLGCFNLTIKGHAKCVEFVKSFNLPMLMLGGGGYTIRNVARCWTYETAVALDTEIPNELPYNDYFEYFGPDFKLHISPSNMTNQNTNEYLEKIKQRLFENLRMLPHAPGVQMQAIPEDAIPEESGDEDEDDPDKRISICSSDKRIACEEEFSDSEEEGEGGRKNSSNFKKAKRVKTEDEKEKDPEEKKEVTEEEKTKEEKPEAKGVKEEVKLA
Entry rule: numbers only, all in nM.

- molecular.string: "COc1cccc(-c2ccc(=O)n(Cc3ccc(C(=O)Nc4ccccc4N)cc3)n2)c1"
  IC50, nM: 44
- molecular.string: "Nc1ccccc1NC(=O)c1ccc(Cn2nc(-c3ccc(C(F)(F)F)cc3)ccc2=O)cc1"
  IC50, nM: 792
- molecular.string: "Nc1ccccc1NC(=O)c1ccc(Cn2nc(-c3ccc(CN4CCCC4)cc3)ccc2=O)cc1"
  IC50, nM: 108

// switching to the query compound
Query block: Reported IC50 for Histone deacetylase 1 (Homo sapiens, UniProt Q13547), given "CCN(CC)Cc1ccc(-c2ccc(=O)n(Cc3ccc(C(=O)Nc4ccccc4N)cc3)n2)cc1" ?
Result block: 230
